tested on: S. aureus strain NRS-123; experiment: MBIC/MIC secondary assay; assay type: cell-based, Staphylococcus aureus; details: S. aureus strain NRS-123
Metric name: MBIC (µM)
The answer is to be given in µM; state only the numeric part.

Sample records with MBIC:
# input Quick one: MBIC for CCOc1cc(/C=C2\SC(=S)N(c3cccc(C#N)c3)C2=O)ccc1O ?
# output 25

# input Quick one: MBIC for CCOc1cc(/C=C2\SC(=S)N(c3ccc(F)cc3)C2=O)ccc1O ?
# output 25

***
# input Quick one: MBIC for CCOc1cc(/C=C2\SC(=S)N(c3cccc(F)c3)C2=O)ccc1O ?
# output 25

# input Quick one: MBIC for CCOc1cc(/C=C2\SC(=S)N(c3cccnc3)C2=O)ccc1O ?
# output 12.5

# input Quick one: MBIC for CCOc1cc(/C=C2\SC(=S)N(c3ccc(F)nc3)C2=O)ccc1O ?
# output 50

# input Quick one: MBIC for C=CCOc1cc(/C=C2\SC(=S)N(c3ccc(F)cc3)C2=O)ccc1O ?
# output 25
